- Target desc: hCB1 (Homo sapiens, UniProt P21554)
- Construct: host or cells: CHO-K1
- Sequence (P21554 whole entry): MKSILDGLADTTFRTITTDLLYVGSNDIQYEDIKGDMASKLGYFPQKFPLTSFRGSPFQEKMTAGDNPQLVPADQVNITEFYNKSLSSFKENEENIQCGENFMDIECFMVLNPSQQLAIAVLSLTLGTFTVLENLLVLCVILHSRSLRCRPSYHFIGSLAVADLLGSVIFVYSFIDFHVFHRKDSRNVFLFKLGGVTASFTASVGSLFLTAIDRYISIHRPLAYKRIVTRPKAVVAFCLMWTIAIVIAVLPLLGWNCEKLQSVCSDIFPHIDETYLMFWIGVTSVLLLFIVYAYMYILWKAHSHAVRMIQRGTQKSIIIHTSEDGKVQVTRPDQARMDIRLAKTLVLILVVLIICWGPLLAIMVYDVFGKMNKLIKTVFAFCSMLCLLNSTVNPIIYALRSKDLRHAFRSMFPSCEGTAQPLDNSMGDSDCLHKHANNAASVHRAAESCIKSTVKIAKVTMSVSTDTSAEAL
- Assay remarks: cAMP assay (LANCE TR-FRET) in CHO-K1 cells stably expressing hCB1, agonist/inverse agonist
- Format: cell-based
- Condition details: intracellular cAMP, CHO-K1 hCB1 cells prestimulated with NKH-477; + agonist, − inverse agonist
Test readout: hCB1 EC50 class

Smiles notation | Result
O=c1c(-c2cccc(Cl)c2)cc2c(n1CC1CCCCC1)CCCC2 | +B
O=c1c(-c2ccc(C(F)(F)F)cc2)cc2c(n1CC1CCCCC1)CCCC2 | +B
O=c1c(-c2cccc(C(F)(F)F)c2)cc2c(n1CC1CCCCC1)CCCC2 | +B
CC(C)CS(=O)(=O)N1CCc2c(cc(-c3cccc(Cl)c3)c(=O)n2CC2CC2)C1 | −B

====

- Target desc: hCB2 (Homo sapiens)
- Construct: host or cells: CHO-K1
- Sequence (P34972 whole entry): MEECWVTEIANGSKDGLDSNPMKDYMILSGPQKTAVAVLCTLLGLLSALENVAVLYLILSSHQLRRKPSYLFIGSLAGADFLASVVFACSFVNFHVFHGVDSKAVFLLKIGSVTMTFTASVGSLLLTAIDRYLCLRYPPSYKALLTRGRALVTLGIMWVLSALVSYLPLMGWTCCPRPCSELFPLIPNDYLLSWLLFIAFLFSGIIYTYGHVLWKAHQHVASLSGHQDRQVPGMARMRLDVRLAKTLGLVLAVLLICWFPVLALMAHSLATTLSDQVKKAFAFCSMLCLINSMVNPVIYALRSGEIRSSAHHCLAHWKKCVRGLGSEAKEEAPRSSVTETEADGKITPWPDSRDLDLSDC
- Assay remarks: cAMP assay (LANCE TR-FRET) in CHO-K1 cells stably expressing hCB2, agonist/inverse agonist
- Assay type: cell-based
- Condition details: intracellular cAMP, CHO-K1 hCB2 cells prestimulated with NKH-477; + agonist, − inverse agonist
Test readout: hCB2 EC50 class

Smiles notation | Test readout | Result
O=c1c(-c2cccnc2)cc2c(n1CC1CCC1)CCCC2 | hCB2 EC50 class | +B
O=c1c(-c2cccc(C(F)(F)F)c2)cc2c(n1CC1CCCCC1)CCCC2 | hCB2 EC50 class | +A
O=c1c(Cc2ccc(F)cc2)cc2c(n1CC1CCC1)CCCC2 | hCB2 EC50 class | +B
COc1cccc(-c2cc3c(n(CC4CCC4)c2=O)CCN(S(C)(=O)=O)C3)c1 | hCB2 EC50 class | +B
CS(=O)(=O)N1CCc2c(cc(-c3ccc(C(F)(F)F)cc3)c(=O)n2CC2CCC2)C1 | hCB2 EC50 class | +A
O=c1c(-c2ccoc2)cc2c(n1CC1CCC1)CCCC2 | hCB2 EC50 class | +C
CS(=O)(=O)N1CCc2c(cc(Cc3ccccc3F)c(=O)n2CC2CCC2)C1 | hCB2 EC50 class | +A
CS(=O)(=O)N1CCc2c(cc(-c3cccc(Cl)c3)c(=O)n2CC2CC2)C1 | hCB2 EC50 class | +A
COc1cccc(-c2cc3c(n(CC4CCC4)c2=O)CCCC3)c1 | hCB2 EC50 class | +B
O=c1c(Cc2ccccc2)cc2c(n1CC1CCC1)CCCC2 | hCB2 EC50 class | +B
O=c1c(-c2cccc(C(F)(F)F)c2)cc2c(n1CC1CCC1)CCCC2 | hCB2 EC50 class | +A
O=c1c(Cc2ccccc2F)cc2c(n1CC1CCC1)CCCC2 | hCB2 EC50 class | +A
O=c1c(-c2cccc(Cl)c2)cc2c(n1CC1CCCCC1)CCCC2 | hCB2 EC50 class | +B
Cc1noc(C)c1-c1cc2c(n(CC3CCC3)c1=O)CCCC2 | hCB2 EC50 class | +B
O=c1c(-c2cc3c(n(CC4CCC4)c2=O)CCCC3)cc2c(n1CC1CCC1)CCCC2 | hCB2 EC50 class | +A
O=c1c(-c2ccccc2)cc2c(n1CC1CCC1)CCCC2 | hCB2 EC50 class | +B
Cc1ccccc1Cc1cc2c(n(CC3CCC3)c1=O)CCCC2 | hCB2 EC50 class | +A
CCS(=O)(=O)N1CCc2c(cc(-c3cccc(Cl)c3)c(=O)n2CC2CC2)C1 | hCB2 EC50 class | +B
O=c1c(Cc2ccncc2)cc2c(n1CC1CCC1)CCCC2 | hCB2 EC50 class | +B
O=c1c(-c2cccc(Cl)c2)cc2c(n1CC1CC1)CCCC2 | hCB2 EC50 class | +B
O=c1c(-c2ccc(C(F)(F)F)cc2)cc2c(n1CC1CCC1)CCNC2 | hCB2 EC50 class | +C
O=c1c(-c2ccc(C(F)(F)F)cc2)cc2c(n1CC1CCC1)CCCC2 | hCB2 EC50 class | +A
CS(=O)(=O)N1CCc2c(cc(-c3cccc(Cl)c3)c(=O)n2CC2CCC2)C1 | hCB2 EC50 class | +A
